Measured growth inhibition values are reported for all entries that follow.
# method.notes: NCI Yeast Anticancer Drug Screen. Data for the mec2-1 strain (AID 157)
# conditions.used: S. cerevisiae mec2-1 strain, at 5.0 µM (retest, dose inferred, filed as 0.5), stronger effect = higher value
The panel holds about 79,000 compounds, 15% with a hit somewhere; the sample as a whole holds those more often.

| compound | growth inhibition [%] |
| --- | --- |
| Cc1cc(Br)ccc1NC(=O)/C=C/C(=O)O | -24 |
| [O-]/[N+](O)=C\c1ccccn1 | 2 |
| Cc1cc(C)c(O)c(C(C)(C)C)c1 | 1 |
| CC(C)OC1=C(Cl)C(=O)c2c(cccc2[N+](=O)[O-])C1=O | 38 |
| CCCCNc1cccc2ncccc12 | 9 |
| O=C1OC(c2ccc3c(c2)OCO3)Sc2ccccc21 (stereo not drawn) | -4 |
| O=C(O)/C(Cl)=C(\Cl)C(=O)Nc1c(Cl)cccc1Cl | -3 |
| c1ccc(C(CNCCN2CCCCCC2)C2CCCCC2)cc1 (stereo not drawn) | 13 |
| Cc1ccc(N2C(N)=C(C#N)C(C#N)(C#N)C2c2ccccc2)cc1 (stereo not drawn) | 26 |
| Cc1ccc(NC(=O)CCCC(=O)C(C#N)c2ccccc2C)cc1C (stereo not drawn) | -2 |
| CC(=O)OCCCCCCCCCCCCCCO | 0 |
| Cc1c(C(=O)O)nc(C(Br)(Br)Br)[nH]c1=O | 20 |
| Clc1cc2ccccc2c2ccccc12 | -3 |

---

# method.notes: NCI Yeast Anticancer Drug Screen. Data for the rad50 strain (AID 155);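 further: 0% = growth of vehicle-only cultures of the same strain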
# conditions.used: S. cerevisiae rad50 strain growth inhibition; at 50.0 µM (retest, dose inferred, filed as 5.0)
# Experimental: Growth inhibition of yeast strains with defined genetic alterations is measured as a screen for potential anti-cancer activity. Selected strains with alterations in DNA damage repair or cell cycle control were exposed to compounds and growth inhibition was measured relative to vehicle treated controls. The strain used in this assay is rad50
The panel holds about 79,000 compounds, 15% with a hit somewhere; the sample as a whole holds those more often. Activity calls are given as the source filed them. Rule as the data show it: active = growth inhibition above about 70%; inactive = the rest.
Outcomes: 1 = active, -1 = inactive

| compound | class.label |
| --- | --- |
| CCCCCCCCCCCC(C)N (stereo not drawn) | 1 |
| Clc1cc2c(c3ncccc13)OCN(Cc1ccccc1)C2 | 1 |
| CCOC(=O)Nc1cc2c(c(N)n1)N=C(c1ccccc1)CN2 | -1 |
| NC(=S)n1nc(-c2ccccc2)c(N=Nc2ccccc2Cl)c1-c1ccccc1 | 1 |
| OC1(c2ccc(Br)cc2)C2CCCCC2C2CCCCC21 (stereo not drawn) | 1 |
| C/C(=N/NC(=O)C[n+]1ccccc1)C(CN(CC(C)C)CC(C)C)C(=O)Nc1ccc(C)cc1C (stereo not drawn) | -1 |
| COc1ccccc1C(=O)N(Cc1ccccc1)c1ccc(Cl)c(C(=O)OC(C)C)c1 | -1 |
| CC1CC(OC(=O)Nc2ccccc2)CC(C)(C)C1 (stereo not drawn) | 1 |
| N#CC1(C#N)C(C#N)(C#N)C12CCCCCC2 | 1 |
| N#CC(C#N)=Cc1ccc(Oc2ccccc2)cc1 | -1 |
| O=C1/C(=C/c2cccc(F)c2)CCCc2ccccc21 | -1 |
| NCCC1=CCCCC1 | 1 |
| O=S1(=O)CCc2ccccc2C(Br)C1Br (stereo not drawn) | 1 |
| c1ccc(CN(CCCOc2ccccc2)Cc2ccccc2)cc1 | -1 |
| COC(=O)CNC(=O)C(F)(F)F | -1 |
| Cn1cc(CCC(=O)C2C=CC=CC2=NC(=O)CCCl)c2ccccc21 (stereo not drawn) | -1 |
| O=C1c2ccc(S(=O)(=O)O)cc2C(=O)c2ccc(S(=O)(=O)O)cc21 | -1 |
| C=C1C(=O)OC2/C=C(\C(=O)O)CC/C=C(\C)CC(OC(=O)/C=C(\C)CC)C12 (stereo not drawn) | 1 |
| O=C(Nn1c(-c2ccccc2)nc2ccccc2c1=O)c1ccccc1O | -1 |
| COC(=O)C1=C(C(=O)OC)C2C(C)=CC(C)=CN2C(C(=O)OC)=C1C(=O)OC (stereo not drawn) | -1 |
| COc1cc(Cc2n[nH]c(=S)n2-c2ccccc2)c(S(=O)(=O)N2CCOCC2)cc1OC | -1 |
| COC(=O)C(=O)C(/C=N/C(=S)NCCc1ccc(OC)c(OC)c1)=C(/O)c1ccc([N+](=O)[O-])cc1 | -1 |
| COc1cc(CC(=O)O)c(Cc2ccc3c(c2)Cc2ccccc2-3)cc1OC | 1 |

---

# method.notes: NCI Yeast Anticancer Drug Screen. Data for the mec2-1 strain (AID 157)
# conditions.used: S. cerevisiae mec2-1 strain, at 5.0 µM (retest, dose inferred, filed as 0.5), stronger effect = higher value
The panel holds about 79,000 compounds, 15% with a hit somewhere; the sample as a whole holds those more often.
Recorded growth inhibition, one value per entry.
property.name: growth inhibition (%)

| compound | property.name | output.unit | numeric.value |
| --- | --- | --- | --- |
| O=Cc1cc2ccccc2cc1C=O | growth inhibition | % | 94 |
| Nc1ccc2oc(=O)c3ccccc3c2c1 | growth inhibition | % | 7 |
| O=C(N/C(=C\c1ccc(Cl)cc1)c1nc2ccccc2s1)c1ccccc1 | growth inhibition | % | 32 |
| CC(C)(O)[C@H](CCO)O[Si](c1ccccc1)(c1ccccc1)C(C)(C)C | growth inhibition | % | 18 |
| CC(=O)OCC1OC(OC2CCCc3c(O)c4c(c(O)c32)C(=O)c2ccccc2C4=O)C(OC(C)=O)C(OC(C)=O)C1OC(C)=O (configuration not stated) | growth inhibition | % | -8 |
| OC(OC/C(I)=C(/I)COC(O)C(Cl)(Cl)Cl)C(Cl)(Cl)Cl (configuration not stated) | growth inhibition | % | 34 |
| C\C=C/C=C/C=C/C(=O)O | growth inhibition | % | 2 |
| Clc1ccc2ccc3cccnc3c2n1 | growth inhibition | % | 7 |
| Oc1ccc(C2Oc3ccccc3C=C2c2ccccc2)cc1 (configuration not stated) | growth inhibition | % | 58 |
| Oc1ccc(SCc2cc(O)ccc2O)cc1 | growth inhibition | % | 8 |
| Cc1ccccc1N=NC(C(=O)c1ccccc1)C(=O)c1ccccc1 | growth inhibition | % | -14 |
| c1ccc(CN2CCC3(CC2)SSC2(CCN(Cc4ccccc4)CC2)S3)cc1 | growth inhibition | % | 2 |

---

# method.notes: NCI Yeast Anticancer Drug Screen. Data for the rad50 strain (AID 155);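 further: 0% = growth of vehicle-only cultures of the same strain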
# conditions.used: S. cerevisiae rad50 strain growth inhibition; at 50.0 µM; stronger effect = higher value
About 79,000 compounds went through this panel and 15% of them were active in at least one assay; those are over-represented in the sample as a whole.
Measured growth inhibition, listed per entry for reference.

| molecule | output.unit | growth inhibition |
| --- | --- | --- |
| Clc1cc(Cl)c2c(c1)nc(Cl)c1cc(Cl)ccc12 | % | 97 |
| CCOC(=O)C(=Cc1ccc(C(=O)OC)cc1)C(=O)OCC | % | 82.2 |
| Cc1cccc(/C=N/Nc2ccccn2)n1 | % | 83 |
| C/C(=N\NC(=S)N/N=C(\C)c1ccccn1)c1ccccn1 | % | 88.2 |
| O=c1[nH][nH]c(=O)c2c1nc(SCc1ccccc1)n2Cc1ccccc1 | % | 8.05 |
| O=[N+]([O-])/C(C=Nc1ccccc1)=C/Nc1ccccc1 | % | 71.5 |
| O=C(CC(c1cccnc1)C(C(=O)c1ccc(Cl)cc1)C(CC(=O)c1ccc(Cl)cc1)c1cccnc1)c1ccc(Cl)cc1 (stereo not drawn) | % | 59.3 |
| COc1ccc(CSC(=S)Nc2ccccc2C(F)(F)F)cc1 | % | 98.3 |
| Oc1ccc(C2CCCCC2)cc1 | % | 85.5 |
| O=c1cc(Cl)c(Cl)nn1-c1ccccc1 | % | 89.2 |
| Cc1cccc(/C=N\OCCc2ccccc2)n1 | % | -3.05 |
| COc1ccc(OC)c2c1C=CC(Br)=CC2 | % | 55.1 |
| CC(C)c1ccc(C(=O)C2CC2)cc1 | % | 34.6 |
| Cc1ccc(S(=O)(=O)OC(COC(=O)c2ccc([N+](=O)[O-])cc2)C2OC(C)(C)OC2C(SCc2ccccc2)SCc2ccccc2)cc1 (stereo not drawn) | % | 96.8 |
| CC(C)N1C(=O)C=CC1=O | % | 93.7 |
| c1ccc(CN(CCCOc2ccccc2)Cc2ccccc2)cc1 | % | 56.4 |
| O=[N+]([O-])C(=C(Nc1ccccc1)Nc1ccccc1)C(Cl)=C(Cl)Cl | % | 89.2 |
| O=C(Cl)c1ccc(N=Nc2ccccc2)cc1 | % | 69.5 |
| Clc1ccc(COC(CN2CCOCC2)c2ccccc2)c(Cl)c1 (stereo not drawn) | % | 94.8 |
| Cc1cc([N+](=O)[O-])cc(C)[n+]1[O-] | % | 82.5 |
| CCOc1ccc2c(c1)[n+]([O-])c(-c1ccc([N+](=O)[O-])cc1)c(N)[n+]2[O-] | % | 95 |
| COC(=O)C(C#N)C(c1ccccc1)c1c[nH]c2ccccc12 (stereo not drawn) | % | 77.2 |
| Oc1ccc(C2Oc3ccccc3C=C2c2ccccc2)cc1 (stereo not drawn) | % | -10.4 |
| COc1cccc(/C=N/NC(=O)c2c(-c3ccccc3)noc2C)c1O | % | 85 |
| C(=N\NC1=NCCN1)/c1cccc2cc3ccncc3nc12 | % | 86.5 |
| OCC(c1ccccc1)c1ccccc1 | % | 77.8 |
| O=C1OC(=O)c2ccc(S)c3cccc1c23 | % | 81.8 |
| NNC(=O)N/N=C(\CC1(O)C(=O)Nc2c(Cl)ccc(Cl)c21)c1ccc(F)cc1 (stereo not drawn) | % | 56.4 |
| COc1ccc(C(=O)C2OC2c2ccccc2)cc1 (stereo not drawn) | % | 42.4 |
| Cn1cnc([N+](=O)[O-])c1S | % | -4.8 |
| Cn1c(Sc2ccc(-c3cccnc3)n2C)ccc1-c1cccnc1 | % | 97.8 |
| S=C1NC2=C(CSC/C2=C\c2ccccc2)C(c2ccccc2)N1 (stereo not drawn) | % | 60.2 |
| Clc1ccc(C(CCc2ccc(Br)cc2)Cn2ccnc2)c(Cl)c1 (stereo not drawn) | % | 99.4 |
| O=C1CN=C(c2ccccc2)N(c2ccccc2)N1 | % | 94 |
| CC(C)c1ccc2c(c1)CCC1C(C)(CN)CCCC21C (stereo not drawn) | % | 99.2 |
| N#CC(C(=O)CCCC(=O)Nc1ccc(Cl)cc1)c1ccccc1Cl (stereo not drawn) | % | 96.8 |
| CC12OC(=O)C(C(N)=O)=C1C=C(c1ccccc1)CC2c1ccccc1 (stereo not drawn) | % | 65 |
| S=c1ncc2c([nH]1)C1c3ccccc3C2c2ccccc21 | % | 86 |
| OC1c2cccn2-c2cc(Cl)ccc2SC1c1ccccc1 (stereo not drawn) | % | 97 |
| CC(=O)OC(CCl)C(C)[N+](=O)[O-] (stereo not drawn) | % | 90.8 |
| C[C@]12CC[C@@H]3c4ccc(O)cc4CC[C@H]3[C@@H]1CC[C@@H]2NCCCCCCO | % | 14.6 |
| O=c1c(Cl)cc2nc3ccccc3sc-2c1Cl | % | 84 |
| CCCCCCN(CCCCCC)CCCCCC | % | 28.6 |
| CC(C)(O)[C@H](CCO)O[Si](c1ccccc1)(c1ccccc1)C(C)(C)C | % | 98.3 |
| CCOC(=O)Nc1c(F)cc(F)cc1F | % | 8.65 |
| C[n+]1c(-c2ccc(/C=N\Nc3nnc(S)n3/N=C/c3ccc(-c4cn5ccccc5[n+]4C)cc3)cc2)cn2ccccc21 | % | 94.5 |
| C(=C\c1cccc2ccccc12)/c1ccncc1 | % | 98.9 |
| O=C1c2ccccc2-c2nc3ncccc3cc21 | % | 95.7 |
